Quick list: inhibition per entry.
- experimentalTarget: N-formyl peptide receptor 2 (Homo sapiens)
- assaySummary: FPRL1 fluorescent ligand binding inhibitors, primary screen, selectivity assay for FPR ligand SAR project, cell-based, flow cytometry, HTS counterscreen (AID 725)
- conditionLabel: FPRL1-expressing cells, hits give high values, concentration not given here
Out of some 1,300 compounds screened, fewer than 10 were called active. Not all results are given here.

For orientation, consider the following solved cases.
O=C1C(=O)N(CCc2c[nH]c3ccccc23)C(c2cccnc2)/C1=C(/O)c1ccc(Cl)cc1 (configuration not stated) | -0.1% (inactive)
CCN1C(=O)C(=C2CCCC2)N(CC)C1=O | 8% (inactive)
Cc1onc(-c2ccccc2Cl)c1C(=O)NC1CCCCC1 | 4.7% (inactive)
COC(=O)c1c(NC(=O)c2ccc(Cl)c(Cl)c2)sc2c1CCCC2 | -2.7% (inactive)
COC(=O)c1c[nH]n2c(=O)c3c(nc12)C(=O)N(Cc1ccccc1)C3 | -4.5% (inactive)
O=C1C(=O)N(Cc2cccnc2)C(c2cccc(Br)c2)/C1=C(\O)c1ccccc1 (configuration not stated) | 4.9% (inactive)
COc1ccc(C2C(C(=O)c3ccc(C)o3)=C(O)C(=O)N2Cc2cccnc2)cc1OC (configuration not stated) | 2.3% (inactive)
CCC(Sc1nc2ncccc2o1)C(=O)Nc1ccccc1OC (configuration not stated) | -16.4% (inactive)

Ask | Give the measured inhibition for CCOC(=O)c1c(NC(=O)c2cccc(Cl)c2)sc(C)c1C
Reply | 6.4% (inactive)

Ask | Give me measured inhibition, please, for this compound: CCCN(C(=O)[C@H]1[C@@H]2C[C@@H]3[C@H]1C(=O)O[C@@H]3C2)c1ccccc1OCC
Reply | 9.1% (inactive)

Ask | Give inhibition for Cc1ccc(C)c(-c2n[nH]n3c2nc(=O)c2ccccc23)c1
Reply | -23.5% (inactive)

###

- experimentalTarget: N-formyl peptide receptor 2 (Homo sapiens) (UniProt P25090)
- Sequence (P25090 whole entry, looked up): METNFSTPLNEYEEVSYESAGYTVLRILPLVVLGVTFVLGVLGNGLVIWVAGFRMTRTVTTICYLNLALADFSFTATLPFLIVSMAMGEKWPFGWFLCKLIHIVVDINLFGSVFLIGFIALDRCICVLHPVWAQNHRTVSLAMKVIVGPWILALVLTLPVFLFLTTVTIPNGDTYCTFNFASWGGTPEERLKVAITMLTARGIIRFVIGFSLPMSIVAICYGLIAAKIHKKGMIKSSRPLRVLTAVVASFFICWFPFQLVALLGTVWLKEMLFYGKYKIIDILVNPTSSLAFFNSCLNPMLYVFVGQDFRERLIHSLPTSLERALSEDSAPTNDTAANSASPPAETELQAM
- assaySummary: FPRL1 fluorescent ligand binding inhibitors, primary screen, selectivity assay for FPR ligand SAR project, cell-based, flow cytometry, HTS counterscreen (AID 725)
- conditionLabel: FPRL1-expressing cells, hits give high values, concentration not given here
Among all 1,300 compounds or so, fewer than 10 were called active. The list is a sample of the results.
measuredParameter: inhibition

COc1ccc(C2/C(=C(\O)c3ccc(C)cc3)C(=O)C(=O)N2CCN2CCOCC2)c(OC)c1 (stereo not given) | -7% (inactive)

Ask | Provide only the value of recorded inhibition for CCOc1ccc(N(C)C(=O)[C@H]2[C@@H]3C[C@@H]4[C@H]2C(=O)O[C@@H]4C3)cc1
Reply | 19.5% (inactive)

Ask | Complete the entry with inhibition for COc1ccc(C2C(C(=O)c3cc4ccccc4o3)=C(O)C(=O)N2CCN(C)C)cc1OC (stereo not given)
Reply | 9.3% (inactive)

Ask | Look up and report measured inhibition for this entry: COc1ccccc1C1SCCN1S(=O)(=O)c1ccc(F)cc1 (stereo not given)
Reply | 11.3% (inactive)

Ask | Please give the documented inhibition of CCOC(=O)c1oc2cc(OCc3ccc(F)cc3)ccc2c(=O)c1-c1ccccc1OC
Reply | 1.2% (inactive)

Ask | Provide one value: measured inhibition of CCc1nn(Cc2ccccc2F)c(=O)c2cc3cc(C)ccc3n12
Reply | -0.2% (inactive)

Ask | Give inhibition for the following molecule: CCOc1ccccc1C(=O)N(Cc1ccc(Cl)cc1)Cc1ccco1
Reply | -14.6% (inactive)

Ask | Tell me measured inhibition for CCOC(=O)N1CCC(c2cc(=O)n3[nH]cc(C(=O)Nc4ccc(OCC)cc4)c3n2)CC1 please.
Reply | -5.2% (inactive)

Ask | Give me measured inhibition, please, for this molecule: O=C1C(=O)N(c2ccccn2)C(c2cccnc2)/C1=C(/O)c1ccccc1 (stereo not given)
Reply | 4.3% (inactive)

Ask | Tell me its inhibition given COc1ccc(C2C(C(=O)c3cccs3)=C(O)C(=O)N2Cc2cccnc2)cc1OC (stereo not given) as the entry.
Reply | -3.8% (inactive)
